Each recorded value in this set is attributed to paper PMC5540273.

- Tested on: ASK1
- Construct: gene MAP3K5
- condition-notes: concentration: 1 μM, replicates: in singlicate; n = 1;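 further: KINOMEscan kinase panel screen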
metric-name: %Inh (%)
One number for each entry, in %.

// known answers, use as guide
[
  {
    "compound": "Cc1nnc(-c2ccc3ncn(-c4ccc(S(C)=O)cc4)c3c2)o1 (stereo not shown)",
    "tested-target": "ASK1",
    "%Inh / %": 0
  },
  {
    "compound": "COc1cc(Nc2ccnc3ccc(C(F)(F)F)cc23)cc(OC)c1OC [GW577382]",
    "tested-target": "ASK1",
    "%Inh / %": 6
  },
  {
    "compound": "COc1ccc(CNC(=O)NC2CCN(c3ccnc(Nc4ccc(F)cc4)n3)C2)cc1 (stereo not shown) [GSK1379706]",
    "tested-target": "ASK1",
    "%Inh / %": 11
  },
  {
    "compound": "Cn1c(=O)c(F)c(Nc2ccc(I)cc2F)c2c(=O)n(OC[C@H](O)CO)cnc21",
    "tested-target": "ASK1",
    "%Inh / %": 0
  },
  {
    "compound": "COc1cc(OC)cc(-c2cc3cnc(N)nc3nc2NC(=O)NC(C)(C)C)c1",
    "tested-target": "ASK1",
    "%Inh / %": 0
  }
]

Please give %Inh for each item listed below.
1. COc1cccc(C2=C(Nc3cccc(C(=O)O)c3)C(=O)NC2=O)c1 [SB-390770]
2. Cc1nn2c(=O)cc(N3CCOCC3)nc2n1Cc1cccc(Cl)c1Cl [GSK2342769]
3. COc1ccc(-c2cc3c(C)nc(N)nc3n([C@H]3CC[C@H](O)CC3)c2=O)cn1
4. Nc1ncnc2c1ncn2-c1ccc(Cl)cc1 [AH2635]

Out:
5
5
6
0

Count: 2. Required value per item: %Inh.
1. C[C@@H]1CC[C@H](C(=O)NC2CCCCC2)CN1c1cc(-c2ccc3c(N)n[nH]c3c2)nc(N)n1 [GSK2291363]
2. COC(=O)c1c(-c2ccccc2)c2cc(C)ccc2c(=O)n1Cc1ccccc1

Out:
1. 9
2. 0

Please supply %Inh for each of the following items, keeping them in order.
1. CCS(=O)(=O)c1ccc(OC)c(Nc2ncc(-c3ccc(F)cc3)o2)c1.Cl [GW591947]
2. Cc1ccc(-c2ccc3c(ccc4sc5c(c43)NC[C@@H](C)N=C5N(C)C)n2)cn1

Out:
1: 0; 2: 0

---

- Tested on: NEK6
- condition-notes: concentration: 1 μM, replicates: in singlicate; n = 1
metric-name: %Inh (%)
Give bare numbers, in %.

[
  {
    "smi": "Cc1cc(Nc2nc(-c3cccc(C)n3)nc3ccccc23)ccn1",
    "quantity-unit": "%",
    "%Inh": 0
  },
  {
    "smi": "CCC(=O)c1c(-c2ccccc2)c2cc(Cl)ccc2c(=O)n1Cc1cc(C(=O)NC2CC2)n(C)n1",
    "quantity-unit": "%",
    "%Inh": 8
  },
  {
    "smi": "Cc1ccc(Oc2ccc(Nc3ncnc4cc[nH]c34)cc2C)cn1",
    "quantity-unit": "%",
    "%Inh": 17
  },
  {
    "smi": "Cl.NS(=O)(=O)c1cccc(Nc2cc(-c3ccc(F)cc3)n[nH]2)c1",
    "quantity-unit": "%",
    "%Inh": 0
  }
]

// switching to the query compound
In: Field request: %Inh | item: `COc1ccc(-c2coc3ccc(-c4nnc(SCc5cccc(C#N)c5)o4)cc23)cc1`
Out: 16
